- procedure.details: in vivo
- Type: in vivo, BALB/cAnNCrl mice
- experimental.parameters: male, BALB/cAnNCrl, mouse, in vivo, po, […], oral gavage, individual animals 1-3; read-out: tmax
*1 amine or outer side, *2 acyl side, *3 side chain or, on linkers, in order; H or OH if unused. Where a SMILES comes first, the peptide text is derived from it. [ ]: non-standard residue; d: D form. X1 = C#CCn1cc(C[C@H](N[*:1])C(=O)[*:2])c2ccccc21; NMeLeu(5-OH,4R) = CN[C@@H](C[C@@H](C)CO)C(=O)O; Phe(βR-OMe) = CO[C@H](c1ccccc1)[C@H](N)C(=O)O; NMeL = CN[C@@H](CC(C)C)C(=O)O
measure.name: tmax (h)
I only need the number, in h, no unit after it.

Briefly, tmax measured for C#CCn1cc(C[C@@H]2NC(=O)[C@H](C(C)C)NC(=O)[C@H](CC(C)C)N(C)C(=O)[C@H](C(C)C)NC(=O)[C@H]([C@H](OC)c3ccccc3)NC(=O)[C@H](C)NC(=O)[C@H](C[C@@H](C)CO)N(C)C2=O)c2ccccc21 [Compound 5] (cyclo(A[Phe(βR-OMe)]V[NMeL]V[X1][NMeLeu(5-OH,4R)])) : 1

---

- Type: in vitro ADME, Rat
- experimental.parameters: clearance in microsomes
- Procedure: The kinetics of compound degradation in liver microsomes is assessed in an assay with 1 µmol/l of compound and 0.5 mg/ml liver microsomes in a medium of 100 mM Tris-HCl pH 7.5, 6.5 mM MgCl2 and 1 mM NADPH at 37 °C. The reaction is stopped at multiple time points by adding acetonitrile. After centrifugation, the compound concentration is measured in the supernatants by high-performance liquid chromatography (HPLC) tandem mass spectrometry (MS/MS). […]
*1 amine or outer side, *2 acyl side, *3 side chain or, on linkers, in order; H or OH if unused. Where a SMILES comes first, the peptide text is derived from it. [ ]: non-standard residue; d: D form. X3 = C#CCOc1ccc([C@@H](OC)[C@H](N[*:1])C(=O)[*:2])cc1; NMeLeu(5-OH,4R) = CN[C@@H](C[C@@H](C)CO)C(=O)O; Phe(βR-OMe) = CO[C@H](c1ccccc1)[C@H](N)C(=O)O; Trp(1-Me) = Cn1cc(C[C@H](N)C(=O)O)c2ccccc21; NMeL = CN[C@@H](CC(C)C)C(=O)O; Pra = C#CC[C@H](N)C(=O)O
What Microsomal Stability Rat was measured for each of the following?
I only need the number, in %Qh, no unit after it.

Briefly, Microsomal Stability Rat measured for COC(c1ccccc1)C1NC(=O)C(C)NC(=O)C(CC(C)CO)N(C)C(=O)C(Cc2cn(Cc3cn(CCOCCOCCOCCOCCn4cc(Cn5cc(CC6NC(=O)C(C(C)C)NC(=O)C(CC(C)C)N(C)C(=O)C(C(C)C)NC(=O)C(C(OC)c7ccccc7)NC(=O)C(C)NC(=O)C(CC(C)CO)N(C)C6=O)c6ccccc65)nn4)nn3)c3ccccc23)NC(=O)C(C(C)C)NC(=O)C(CC(C)C)N(C)C(=O)C(C(C)C)NC1=O (stereo not shown) : 40

Briefly, Microsomal Stability Rat measured for C#CC[C@@H]1NC(=O)[C@H](CC(C)C)N(C)C(=O)[C@H](C(C)C)NC(=O)[C@H]([C@H](OC)c2ccccc2)NC(=O)[C@H](C)NC(=O)[C@H](C[C@@H](C)CO)N(C)C(=O)[C@H](Cc2cn(C)c3ccccc23)NC1=O [Compound 10] (cyclo(A[Phe(βR-OMe)]V[NMeL][Pra][Trp(1-Me)][NMeLeu(5-OH,4R)])) : 85

Briefly, Microsomal Stability Rat measured for C#CCOc1ccc([C@@H](OC)[C@@H]2NC(=O)[C@H](C)NC(=O)[C@H](C[C@@H](C)CO)N(C)C(=O)[C@H](Cc3cn(C)c4ccccc34)NC(=O)[C@H](C(C)C)NC(=O)[C@H](CC(C)C)N(C)C(=O)[C@H](C(C)C)NC2=O)cc1 [SI-38] (cyclo(A[X3]V[NMeL]V[Trp(1-Me)][NMeLeu(5-OH,4R)])) : 59

---

What CACO permeability PEAB was measured for each of the following?
- Test system: Caco-2 monolayers
- procedure.details: in vitro
- experimental.parameters: apical to basolateral
*1 amine or outer side, *2 acyl side, *3 side chain or, on linkers, in order; H or OH if unused. Where a SMILES comes first, the peptide text is derived from it. [ ]: non-standard residue; d: D form. ξ: configuration not given here. X3 = C#CCOc1ccc([C@@H](OC)[C@H](N[*:1])C(=O)[*:2])cc1; X5 = C=CCn1cc(C[C@@H](C(=O)[*:2])N(C)[*:1])c2ccccc21; X1 = C#CCn1cc(C[C@H](N[*:1])C(=O)[*:2])c2ccccc21; X7 = C=CCn1cc(C[C@H](N[*:1])C(=O)[*:2])c2ccccc21; NMeLeu(5-OH,4R) = CN[C@@H](C[C@@H](C)CO)C(=O)O; Phe(βR-OMe) = CO[C@H](c1ccccc1)[C@H](N)C(=O)O; ξNMeTrp(1-Me) = CNC(Cc1cn(C)c2ccccc12)C(=O)O; X8 = CC(CO)C[C@@H](C(=O)[*:2])N(C)[*:1]; NMeL = CN[C@@H](CC(C)C)C(=O)O; ξV = CC(C)C(N)C(=O)O
I only need the number, in cm/s, no unit after it.

Briefly, CACO permeability PEAB measured for C=CCn1cc(C[C@@H]2NC(=O)[C@H](C(C)C)NC(=O)[C@H](CC(C)C)N(C)C(=O)[C@H](C(C)C)NC(=O)[C@H]([C@H](OC)c3ccccc3)NC(=O)[C@H](C)NC(=O)[C@H](C[C@@H](C)CO)N(C)C2=O)c2ccccc21 [Compound 13] (cyclo(A[Phe(βR-OMe)]V[NMeL]V[X7][NMeLeu(5-OH,4R)])) : 0.0000024

Briefly, CACO permeability PEAB measured for C=CCn1cc(C[C@H]2C(=O)N(C)[C@@H](C[C@@H](C)CO)C(=O)N[C@@H](C)C(=O)N[C@@H]([C@H](OC)c3ccccc3)C(=O)N[C@@H](C(C)C)C(=O)N(C)[C@@H](CC(C)C)C(=O)N[C@@H](C(C)C)C(=O)N2C)c2ccccc21 [SI-60] (cyclo(A[Phe(βR-OMe)]V[NMeL]V[X5][NMeLeu(5-OH,4R)])) : 0.000035

Briefly, CACO permeability PEAB measured for C#CCn1cc(C[C@@H]2NC(=O)[C@H](C(C)C)NC(=O)[C@H](CC(C)C)N(C)C(=O)[C@H](C(C)C)NC(=O)[C@H](Cc3ccccc3)NC(=O)[C@H](C)NC(=O)[C@H](C[C@@H](C)CO)N(C)C2=O)c2ccccc21 [SI-72] (cyclo(AFV[NMeL]V[X1][NMeLeu(5-OH,4R)])) : 0.00000029000000000000003

Briefly, CACO permeability PEAB measured for C#CCOc1ccc([C@@H](OC)[C@@H]2NC(=O)[C@@H](C)NC(=O)[C@H](CC(C)CO)N(C)C(=O)C(Cc3cn(C)c4ccccc34)N(C)C(=O)C(C(C)C)NC(=O)[C@H](CC(C)C)N(C)C(=O)[C@@H](C(C)C)NC2=O)cc1 (stereo partly drawn) [SI-64] (cyclo([NMeL][ξV][ξNMeTrp(1-Me)][X8][dA][X3][dV])) : 0.000014999999999999999

---

- procedure.details: in vivo
- Type: in vivo, BALB/cAnNCrl mice
- experimental.parameters: male, BALB/cAnNCrl, mouse, in vivo, iv, 1.062 umol/kg, iv bolus, individual animals 1-3
*1 amine or outer side, *2 acyl side, *3 side chain or, on linkers, in order; H or OH if unused. Where a SMILES comes first, the peptide text is derived from it. [ ]: non-standard residue; d: D form. X1 = C#CCn1cc(C[C@H](N[*:1])C(=O)[*:2])c2ccccc21; NMeLeu(5-OH,4R) = CN[C@@H](C[C@@H](C)CO)C(=O)O; Phe(βR-OMe) = CO[C@H](c1ccccc1)[C@H](N)C(=O)O; NMeL = CN[C@@H](CC(C)C)C(=O)O
measure.name: half-life (min)
I only need the number, in min, no unit after it.

Briefly, half-life measured for C#CCn1cc(C[C@@H]2NC(=O)[C@H](C(C)C)NC(=O)[C@H](CC(C)C)N(C)C(=O)[C@H](C(C)C)NC(=O)[C@H]([C@H](OC)c3ccccc3)NC(=O)[C@H](C)NC(=O)[C@H](C[C@@H](C)CO)N(C)C2=O)c2ccccc21 [Compound 5] (cyclo(A[Phe(βR-OMe)]V[NMeL]V[X1][NMeLeu(5-OH,4R)])) : 54
